Numbers sourced from patent US20140288013A1.

Tested on: A549
ASSAY_COMMENT: MTS assay, IC50 in LKB1-null NSCLC cell line A549
Type: cell-based
ASSAY_CONTEXT: Homo sapiens, A549, 48 h
EXPERIMENTAL_ENDPOINT: IC50 (µM)
Reply numerically in µM, unit not repeated.

Please list IC50 recorded for the molecule CC1(C(=O)Nc2ccc(F)nc2)CCCN1c1nc(Nc2cc(C3CC3)[nH]n2)c2cccn2n1 (stereo not shown)
16.6

###

Test system: H460
ASSAY_COMMENT: MTS assay, IC50 in LKB1-null NSCLC cell line H460
Assay type: cell-based
ASSAY_CONTEXT: Homo sapiens, NCI-H460; H460, MTS assay, 48 hrs; read-out: IC50
EXPERIMENTAL_ENDPOINT: pIC50
Entry type: numeric. Quantity: pIC50, the -log10 of concentration in molar units.

Please list pIC50 recorded for the compound `O=CC[C@@H](O)[C@H](O)[C@H](O)CO`
1.85
